molecular target: cathepsin L (CatL) (Homo sapiens, UniProt P07711); construct: purchased Calbiochem (Merck Millipore); experiment: Cathepsin L inhibition, fluorometric assay; format: biochemical
Sequence (P07711 114-288 limits assumed): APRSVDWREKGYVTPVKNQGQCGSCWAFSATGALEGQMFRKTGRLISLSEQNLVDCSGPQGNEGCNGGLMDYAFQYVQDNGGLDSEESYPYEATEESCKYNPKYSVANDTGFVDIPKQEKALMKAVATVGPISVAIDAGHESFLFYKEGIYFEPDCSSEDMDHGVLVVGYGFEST
Sequence (P07711 292-333 limits assumed): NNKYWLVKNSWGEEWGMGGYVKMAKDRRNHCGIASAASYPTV
experimental.endpoint: Ki (nM)
Reply with just the number (in nM).

Prompt: Could you share what Ki was measured for CC(C)C[C@H](NC(=O)OCc1ccccc1)C(=O)N[C@H](/C=C/[N+](=O)[O-])C[C@@H]1CCNC1=O , tested on cathepsin L (CatL) (Homo sapiens, UniProt P07711)?
Response: 1990

* * *

target: M^pro (Severe acute respiratory syndrome coronavirus 2); assay: Binding to M^pro by ultracentrifugation (sedimentation method); conditions: ultracentrifugation; 25 °C
For each entry below, report its Kd value.
Reply with just the number (in µM).

Prompt: Name the reported Kd value associated with the compound COc1cccc2[nH]c(C(=O)N[C@@H](CC(C)C)C(=O)N[C@H](/C=C/[N+](=O)[O-])C[C@@H]3CCNC3=O)cc12
Response: 7.28

Prompt: Name the reported Kd value associated with the compound CC(C)CC(NC(=O)C=Cc1ccccc1)C(=O)NC(C=C[N+](=O)[O-])CC1CCNC1=O (centres unmarked)
Response: 11.8

* * *

molecular target: SARS-CoV-2 M^pro (Severe acute respiratory syndrome coronavirus 2, UniProt P0DTD1); assay: biochemical; settings: M^pro from pMal-M^pro vector
experimental.endpoint: Ki (µM)
Reply with just the number (in µM).

Prompt: Name the reported Ki value associated with the molecule CC(C)C[C@H](NC(=O)OCc1ccccc1)C(=O)N[C@H](/C=C/[N+](=O)[O-])C[C@@H]1CCNC1=O [FGA147]
Response: 2.18

Prompt: Name the reported Ki value associated with the molecule COc1cccc2[nH]c(C(=O)N[C@@H](CC(C)C)C(=O)N[C@H](/C=C/[N+](=O)[O-])C[C@@H]3CCNC3=O)cc12 [FGA146]
Response: 2.19

Prompt: Name the reported Ki value associated with the molecule CC(C)C[C@H](NC(=O)[C@@H](NC(=O)[C@H](C)NC(=O)OC(C)(C)C)C(C)C)C(=O)N[C@H](/C=C/[N+](=O)[O-])CCc1ccccc1 [FGA159]
Response: 21.8

Prompt: Name the reported Ki value associated with the molecule CC(C)CC(NC(=O)C=Cc1ccccc1)C(=O)NC(C=C[N+](=O)[O-])CC1CCNC1=O (stereo not shown) [FGA145]
Response: 3.71

* * *

For each entry below, report its Ki value.
biological target: cathepsin L (CatL) (Homo sapiens, UniProt P07711); construct: purchased Calbiochem (Merck Millipore); assay: Cathepsin L inhibition, fluorometric assay; assay type: biochemical; conditions: read-out: Ki CatL
Param answer (str): number followed by unit.

Prompt: Name the reported Ki value associated with the molecule COc1cccc2[nH]c(C(=O)N[C@@H](CC(C)C)C(=O)N[C@H](/C=C/[N+](=O)[O-])C[C@@H]3CCNC3=O)cc12 [FGA146]
Response: 868 nM

Prompt: Name the reported Ki value associated with the molecule CC(C)CC(NC(=O)C=Cc1ccccc1)C(=O)NC(C=C[N+](=O)[O-])CC1CCNC1=O (centres unmarked) [FGA145]
Response: 53 nM

* * *

target: M^pro (Severe acute respiratory syndrome coronavirus 2, UniProt P0DTD1); experiment: biochemical; assay type: binding; conditions: 25 µM; read-out: DTm (°C)
For each entry below, report its ΔTm at 25 µM value.
Param answer (str): number followed by unit.

Prompt: Name the reported ΔTm at 25 µM value associated with the molecule CC(C)C[C@H](NC(=O)OCc1ccccc1)C(=O)N[C@H](/C=C/[N+](=O)[O-])C[C@@H]1CCNC1=O
Response: -3 °C

Prompt: Name the reported ΔTm at 25 µM value associated with the molecule CC(C)CC(NC(=O)C=Cc1ccccc1)C(=O)NC(C=C[N+](=O)[O-])CCc1ccccc1 (centres unmarked)
Response: 0.1 °C

Prompt: Name the reported ΔTm at 25 µM value associated with the molecule CC(C)CC(NC(=O)C=Cc1ccccc1)C(=O)NC(C=C[N+](=O)[O-])CC1CCNC1=O (centres unmarked)
Response: -1.1 °C

Prompt: Name the reported ΔTm at 25 µM value associated with the molecule CC(C)C[C@H](NC(=O)[C@@H](NC(=O)[C@H](C)NC(=O)OC(C)(C)C)C(C)C)C(=O)N[C@H](/C=C/[N+](=O)[O-])CCc1ccccc1
Response: 2.5 °C

Prompt: Name the reported ΔTm at 25 µM value associated with the molecule O=C(N[C@@H](Cc1ccccc1)C(=O)N[C@H](/C=C/[N+](=O)[O-])CCc1ccccc1)OCc1ccccc1
Response: 0.9 °C
